Hi there, I'd appreciate the recorded Euclidean distance for every entry that follows.
system: OVCAR4; experiment: Euclidean distance of Cell Painting phenotypic profile (signed KS, 77 features) to DMSO centroid (dimensionless distance); 5 or 10 uM (library dependent); higher = stronger phenotypic change vs DMSO (phenoactivity); conditions: 48 h
Structures can show the parent of a compound that is named as a salt.
Numbers only.

Check out these entries, answers already filled in.
[in] Find the recorded Euclidean distance belonging to CNC1CCCN(c2c(F)cc3c(=O)c(C(=O)O)cn(C4CC4)c3c2OC)C1 (stereo not drawn) [Balofloxacin Dihydrate] and report it.
[out] 1.02

[in] For `O=C1c2ccccc2C(=O)C1c1ccccc1` then?
[out] 1.1

[in] Follow-up item: `N[C@H](Cc1ccccc1)C(=O)O`
[out] 0.852

[in] What do you get for `CC(C)[C@H]1C(=O)N[C@@H](CCCN=C(N)N)C(=O)NCC(=O)N[C@@H](CC(=O)O)C(=O)N[C@H](Cc2ccccc2)C(=O)N1C` ?
[out] 2.44

[in] Repeat with `NCCCCCC(=O)O`
[out] 1.43

# batch: return Euclidean distance for each of the 3 compounds below
1. c1ccc2c(Oc3nc(Nc4ccc(N5CCOCC5)cc4)c4ncn(C5CCCCC5)c4n3)cccc2c1
2. COc1cc(N2CCC(N3CCN(C)CC3)CC2)ccc1Nc1ncc(Cl)c(Nc2ccccc2P(C)(C)=O)n1
3. N=C(N)NC(=N)N1CCOCC1 [Moroxydine HCl]

[out]
1. 1.94
2. 1.74
3. 1.22

---

test system: DU145; test: Euclidean distance of Cell Painting phenotypic profile (signed KS, 77 features) to DMSO centroid (dimensionless distance); 5 or 10 uM (library dependent); higher = stronger phenotypic change vs DMSO (phenoactivity); conditions: 48 h
Where a name gives a salt, the structure may show the parent alone.
assay.metric: Euclidean distance
Give bare numbers.

As a guide, the following entries are already answered.
[in] Requested read-out: Euclidean distance. Entry: `C#C[C@]1(O)CC[C@H]2[C@@H]3CCC4=CC(=O)CC[C@@H]4[C@H]3CC[C@@]21C`
[out] 0.791

[in] Then what about the compound `O=C(Oc1ccccc1C(=O)O)c1ccccc1O` ?
[out] 0.556

[in] Now try `Cc1cc(Nc2ncnc3ccc(-c4ccc(CNCCS(C)(=O)=O)o4)cc23)ccc1Oc1ccn2ncnc2c1` .
[out] 1.08

[in] Then what about the compound `C/C=C\c1ccc(O)c(OC)c1` ?
[out] 1.07

[in] Same again, this time with CCC(=O)NS(=O)(=O)c1ccc(-c2c(-c3ccccc3)noc2C)cc1 [Parecoxib Sodium]
[out] 0.541

Please go through the list and note Euclidean distance for each compound.
1. COc1cc(C[C@H]2C(=O)OC[C@@H]2Cc2ccc(OC)c(OC)c2)ccc1O [(-)-Arctigenin]
2. O=C1c2ccc(Nc3ccc(F)cc3F)cc2CCc2ccc(OC[C@H](O)CO)cc21 [Skepinone-L]
3. COc1ccc(NS(=O)(=O)c2ccc(N)cc2)nn1
4. Nc1c2c(nc3ccccc13)CCCC2 [Tacrine HCl]
5. O=C1c2c(O)cc(O)cc2OC(c2ccc(O)c(O)c2)C1O (stereo not given) [Taxifolin (Dihydroquercetin)]
6. Cc1oc(=O)oc1CN1CCN(c2cc3c(cc2F)c(=O)c(C(=O)O)c2n3C(C)S2)CC1 (stereo not given)
7. Cc1cc(Nc2cc(CN3CCOCC3)c3nc(C)c(Cc4ccc(Cl)cc4F)n3n2)n[nH]1
8. CCOC(=O)C(C)(C)Oc1ccc(Cl)cc1 [Clofibrate]

[out]
1.36
1.78
1.02
0.636
1.09
0.968
2.63
1.7

For each entry beneath this line, provide reported Euclidean distance.
1. Cc1ccc(S(=O)(=O)/C=C/C#N)cc1
2. NS(=O)(=O)Cc1noc2ccccc12 [Zonisamide]

[out]
[1.36, 0.986]
